Give viability at 10 µM for every item shown.
# Test system: ND3 neuronal cell line
# METHOD: Measurement of nerve growth stimulation effect (neurite bearing assay, neurite length assay, number of cells)
# Type: cell-based
# EXPERIMENTAL CONTEXT: 10 μM; 6 hours; relative cell number, DMSO well = 1
Reply with just the number (in %).

Under ND3 neuronal cell line: viability at 10 µM value of COCCCCCCCCCCCCCCCC1=CC(=O)CCC1(C)C [Compound 39] ?
97

// map CNC(=O)CCCCCCCCCCCCCCC1=C(C)C(=O)CCC1(C)C [Compound 33] to recorded viability at 10 µM (system: ND3 neuronal cell line)
86

Form field - read-out: viability at 10 µM; system: ND3 neuronal cell line; submitted item: COCCCCCCCCCCCCC1=C(C)C(=O)CCC1(C)C [Compound 11]
82

Item: CNC(=O)OCCCCCCCCCCCCCCCC1=C(C)C(=O)CCC1(C)C [Compound 55] Test system: ND3 neuronal cell line Read-out: viability at 10 µM Value: ?
85

Lookup: viability at 10 µM / ND3 neuronal cell line / CCOCCCCCCCCCCCCC1=C(C)C(=O)CCC1(C)C [Compound 12]
69

Can you look up viability at 10 µM on ND3 neuronal cell line for CCOCCCCCCCCCCCCCC1=C(C)C(=O)CCC1(C)C [Compound 17] ?
104

What measured viability at 10 µM is associated with COC(C)(C)CCCCCCCCCCCCCCC1=C(C)C(O)CCC1(C)C (stereo not shown) [Compound 47] on ND3 neuronal cell line?
89

Notebook entry, ND3 neuronal cell line assay: viability at 10 µM of CC1=C(CCCCCCCCCCCCCOC(C)C)C(C)(C)CCC1=O [Compound 18] = ?
97

Give viability at 10 µM (ND3 neuronal cell line) of the following compound: COCCCCCCCCCCCCCCCC1=C(I)C(=O)CCC1(C)C [Compound 40]
93

Could you share what viability at 10 µM was measured for CCOCCCCCCCCCCCCCCCC1=C(C)C(=O)CCC1(C)C [Compound 25] , tested on ND3 neuronal cell line?
97
